- target_or_test_system: GABA-A receptor; anion channel
- assay_summary: Inhibition of [3H]diazepam binding to GABA-A central benzodiazepine receptor of rat brain homogenate
Each entry below lists one item and its recorded Ki value.

| compound | target_or_test_system | endpoint_unit | qualifying_sign | Ki |
| --- | --- | --- | --- | --- |
| COCCN(CCOC)c1nn2c(-c3ccc(N(C)C)cc3)nnc2c2ccccc12 | GABA-A receptor; anion channel | nM | = | 2650 |
| COCCN(CCOC)c1nn2c(-c3ccc(OC)cc3)nnc2c2ccccc12 | GABA-A receptor; anion channel | nM | = | 2.6 |
| COCCN(CCOC)c1nn2c(-c3ccccc3)nnc2c2ccccc12 | GABA-A receptor; anion channel | nM | = | 66 |
| CCN(CC)c1nn2c(-c3ccccc3)nnc2c2ccccc12 | GABA-A receptor; anion channel | nM | = | 41 |
| N#Cc1ccc(-c2nnc3c4ccccc4c(N4CCCC4)nn23)cc1 | GABA-A receptor; anion channel | nM | = | 102 |
| CNc1nn2c(-c3ccccc3)nnc2c2ccccc12 | GABA-A receptor; anion channel | nM | = | 46.3 |
| CN(C)c1ccc(-c2nnc3c4ccccc4c(N4CCCC4)nn23)c(Cl)c1 | GABA-A receptor; anion channel | nM | = | 393 |
| CCOc1cc(OCC)c(-c2nnc3c4ccccc4c(N4CCCC4)nn23)cc1OCC | GABA-A receptor; anion channel | nM | > | 3000 |
| CCN(C)c1nn2c(-c3ccccc3)nnc2c2ccccc12 | GABA-A receptor; anion channel | nM | = | 14.4 |
| COCCN(CCOC)c1nn2c(-c3ccc(C)cc3)nnc2c2ccccc12 | GABA-A receptor; anion channel | nM | = | 44 |
| CCNc1nn2c(-c3ccccc3)nnc2c2ccccc12 | GABA-A receptor; anion channel | nM | = | 37.6 |
| FC(F)(F)c1cccc(-c2nnc3c4ccccc4c(N4CCCC4)nn23)c1 | GABA-A receptor; anion channel | nM | > | 3000 |
| COCCN(CCOC)c1nn2c(-c3ccc(OC(C)C)cc3)nnc2c2ccccc12 | GABA-A receptor; anion channel | nM | = | 142 |
| CC(C)(C)Nc1nn2c(-c3ccccc3)nnc2c2ccccc12 | GABA-A receptor; anion channel | nM | = | 565 |
| CC(=O)Nc1ccc(-c2nnc3c4ccccc4c(N4CCCC4)nn23)cc1 | GABA-A receptor; anion channel | nM | = | 36 |
| COc1cc(-c2nnc3c4ccccc4c(N4CCCC4)nn23)cc(Br)c1OC | GABA-A receptor; anion channel | nM | > | 3000 |
| c1ccc(-c2nnc3c4ccccc4c(N4CCCCC4)nn23)cc1 | GABA-A receptor; anion channel | nM | = | 16 |
| COCCN(CCOC)c1nn2c(-c3ccc(F)cc3)nnc2c2ccccc12 | GABA-A receptor; anion channel | nM | = | 20 |
| CCCCCOc1ccc(-c2nnc3c4ccccc4c(N4CCCC4)nn23)cc1OC | GABA-A receptor; anion channel | nM | > | 3000 |
| COc1ccc(-c2nnc3c4ccccc4c(N(C)CC(C)O)nn23)cc1 (stereo not drawn) | GABA-A receptor; anion channel | nM | = | 17 |
| Brc1ccccc1-c1nnc2c3ccccc3c(N3CCCC3)nn12 | GABA-A receptor; anion channel | nM | = | 760 |
| c1ccc(CNc2nn3c(-c4ccccc4)nnc3c3ccccc23)cc1 | GABA-A receptor; anion channel | nM | = | 243 |
| COc1cc(OC)c(-c2nnc3c4ccccc4c(N4CCCC4)nn23)cc1OC | GABA-A receptor; anion channel | nM | = | 1930 |
